System: pulmonary artery of the guinea-pig
Experiment: relaxation of guinea-pig potassium-depolarised pulmonary artery strips (inhibition of CaCl2-induced contraction)
Conditions: Cavia porcellus, read-out: IC50 (concentration of the test substance which inhibits the contraction by 50%)
Source text: As a guanylate cyclase activator, nitrogen monoxide leads to an increase in cyclic guanosine monophosphate, which causes a relaxation in the smooth muscle and antiadhesive and antiaggregatory actions in the blood platelets. Nitrogen monoxide is additionally crucially involved in learning processes, in the regulation of the kidney function, in immune defence, in septic shock and in erectile dysfunctions. […]
experimental endpoint: IC50

Quote IC50 reported for O=[N+]([O-])O[C@@H]1CO[C@H]2[C@@H]1OC[C@@H]2O [Isosorbide-5-mononitrate, reference compound] please. > 100 µM
